target: c-Src SH2; test: SH2 binding enrichment of the phosphorylated peptide, bacterial display (enrichment ratio); higher = better substrate or ligand; peptides without Tyr show the background;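 also: peptide library displayed on the E. coli surface as eCPX fusions, selected cells deep-sequenced, score is each peptide's frequency after selection divided by its frequency in the input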
Consider the following partition of reported SH2 binding enrichment into named classes: b0 = under 0.5, b1 = from 0.5 up to 0.6, b2 = 0.6 and over

## Input Category lookup for the sequence ADAHHYLCKEV [JAK2_Y382]
## Output b1

---

Kindly supply the reported phosphorylation enrichment values for the records listed here.
tested on: c-Abl (mouse); test: phosphorylation enrichment, bacterial display (enrichment ratio); higher = better substrate or ligand; peptides without Tyr show the background;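 also: 11-residue human phosphosite peptides and single-mutation variants displayed on the E. coli surface, counted by deep sequencing, each peptide's frequency after selection divided by its frequency in the unselected input library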;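 also: frequency after pTyr selection over input frequency; kinase dosed for 20-30% of maximal phosphorylation in three min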
One number for each entry.

# example entries with known answers
sequence text	property	value
KYVVVYFREID [IL17RB_Y447]	phosphorylation enrichment	1.01
ASELGYQFQAI [UROD_Y133_V134Q]	phosphorylation enrichment	0.596
VVHSSYDEIEG [SEC24A_Y263]	phosphorylation enrichment	0.713
RMSQRYGDVLQ [CYP1A2_Y72]	phosphorylation enrichment	0.747
NTGDFYDLFGG [PTPN11_Y63_YF]	phosphorylation enrichment	0.773
VFFFSYLLKNH [PTEN_Y180_YF]	phosphorylation enrichment	0.918
RKKLFYKADGE [SERPINC1_Y272_E269K]	phosphorylation enrichment	0.894
SDVDLYQVRIA [PSMD9_Y70_T74I]	phosphorylation enrichment	0.579

Provide phosphorylation enrichment values for the following items, in order.
1. PAEPRYRARQR [KCNJ11_Y26]
2. PQEVTYAQLDH [KIR3DL2_Y398]
3. FKEDPYLVVNP [MCM6_Y810_E806K_YF]
4. PLDGEYVTLQI [TP53_Y327_F328V]

## Output
1. 0.737
2. 4.39
3. 0.815
4. 1.17
